Molecular target: NaV1.1 (Homo sapiens (Human), UniProt P35498)
Assay: Sodium Influx Assay (Flux), NaV1.1
Type: cell-based
Settings: Trex HEK293 cells, ANG2 dye; arithmetic mean
pIC50: −log10 of the molar value. Where a name gives a salt, the structure may show the parent alone.
property_name: pIC50

// known answers, use as guide
> print(dat)
                                   compound  property.name  reading
1  CN(c1cc(F)c(S(=O)(=O)Nc2cscn2)cc1Cl)[C@H]1CCN(Cc2cc(F)ccc2F)C1 [Example 207]          pIC50     5.14
2  CN(c1ccc(S(=O)(=O)Nc2ncns2)cc1Cl)[C@H]1CCN(Cc2ccccc2Cl)C1 [Example 252, 2,2,2-trifluoroacetate]          pIC50     4.77

I: O=S(=O)(Nc1nccs1)c1ccc(OC2CCN(CC3CCCCC3)CC2)c(Cl)c1 [Example 6, 2,2,2-trifluoroacetate]
II: O=S(=O)(Nc1nccs1)c1ccc(N[C@@H]2CCN(Cc3cccc(Cl)c3)C2)c(Cl)c1 [Example 69]
III: CN(c1cc(F)c(S(=O)(=O)Nc2cscn2)cc1C(F)F)[C@H]1CCN(Cc2ccccc2)C1 [Example 270, formate]
IV: O=S(=O)(Nc1cscn1)c1ccc(OC2CCN(Cc3cccc(C(F)F)c3)CC2)c(Cl)c1 [Example 232, formate]
Problem: Sort by pIC50, descending. I'd appreciate it if you listed the labels in the requested order.
Result: II, IV, I, III
(II: 5.75, IV: 5.34, I: 4.92, III: 4.66)

====

This listing pairs molecules with measured pIC50.
Biological target: NaV1.5 (Homo sapiens (Human))
Sequence (Q14524 other isoform, or with tags, fused parts or gaps): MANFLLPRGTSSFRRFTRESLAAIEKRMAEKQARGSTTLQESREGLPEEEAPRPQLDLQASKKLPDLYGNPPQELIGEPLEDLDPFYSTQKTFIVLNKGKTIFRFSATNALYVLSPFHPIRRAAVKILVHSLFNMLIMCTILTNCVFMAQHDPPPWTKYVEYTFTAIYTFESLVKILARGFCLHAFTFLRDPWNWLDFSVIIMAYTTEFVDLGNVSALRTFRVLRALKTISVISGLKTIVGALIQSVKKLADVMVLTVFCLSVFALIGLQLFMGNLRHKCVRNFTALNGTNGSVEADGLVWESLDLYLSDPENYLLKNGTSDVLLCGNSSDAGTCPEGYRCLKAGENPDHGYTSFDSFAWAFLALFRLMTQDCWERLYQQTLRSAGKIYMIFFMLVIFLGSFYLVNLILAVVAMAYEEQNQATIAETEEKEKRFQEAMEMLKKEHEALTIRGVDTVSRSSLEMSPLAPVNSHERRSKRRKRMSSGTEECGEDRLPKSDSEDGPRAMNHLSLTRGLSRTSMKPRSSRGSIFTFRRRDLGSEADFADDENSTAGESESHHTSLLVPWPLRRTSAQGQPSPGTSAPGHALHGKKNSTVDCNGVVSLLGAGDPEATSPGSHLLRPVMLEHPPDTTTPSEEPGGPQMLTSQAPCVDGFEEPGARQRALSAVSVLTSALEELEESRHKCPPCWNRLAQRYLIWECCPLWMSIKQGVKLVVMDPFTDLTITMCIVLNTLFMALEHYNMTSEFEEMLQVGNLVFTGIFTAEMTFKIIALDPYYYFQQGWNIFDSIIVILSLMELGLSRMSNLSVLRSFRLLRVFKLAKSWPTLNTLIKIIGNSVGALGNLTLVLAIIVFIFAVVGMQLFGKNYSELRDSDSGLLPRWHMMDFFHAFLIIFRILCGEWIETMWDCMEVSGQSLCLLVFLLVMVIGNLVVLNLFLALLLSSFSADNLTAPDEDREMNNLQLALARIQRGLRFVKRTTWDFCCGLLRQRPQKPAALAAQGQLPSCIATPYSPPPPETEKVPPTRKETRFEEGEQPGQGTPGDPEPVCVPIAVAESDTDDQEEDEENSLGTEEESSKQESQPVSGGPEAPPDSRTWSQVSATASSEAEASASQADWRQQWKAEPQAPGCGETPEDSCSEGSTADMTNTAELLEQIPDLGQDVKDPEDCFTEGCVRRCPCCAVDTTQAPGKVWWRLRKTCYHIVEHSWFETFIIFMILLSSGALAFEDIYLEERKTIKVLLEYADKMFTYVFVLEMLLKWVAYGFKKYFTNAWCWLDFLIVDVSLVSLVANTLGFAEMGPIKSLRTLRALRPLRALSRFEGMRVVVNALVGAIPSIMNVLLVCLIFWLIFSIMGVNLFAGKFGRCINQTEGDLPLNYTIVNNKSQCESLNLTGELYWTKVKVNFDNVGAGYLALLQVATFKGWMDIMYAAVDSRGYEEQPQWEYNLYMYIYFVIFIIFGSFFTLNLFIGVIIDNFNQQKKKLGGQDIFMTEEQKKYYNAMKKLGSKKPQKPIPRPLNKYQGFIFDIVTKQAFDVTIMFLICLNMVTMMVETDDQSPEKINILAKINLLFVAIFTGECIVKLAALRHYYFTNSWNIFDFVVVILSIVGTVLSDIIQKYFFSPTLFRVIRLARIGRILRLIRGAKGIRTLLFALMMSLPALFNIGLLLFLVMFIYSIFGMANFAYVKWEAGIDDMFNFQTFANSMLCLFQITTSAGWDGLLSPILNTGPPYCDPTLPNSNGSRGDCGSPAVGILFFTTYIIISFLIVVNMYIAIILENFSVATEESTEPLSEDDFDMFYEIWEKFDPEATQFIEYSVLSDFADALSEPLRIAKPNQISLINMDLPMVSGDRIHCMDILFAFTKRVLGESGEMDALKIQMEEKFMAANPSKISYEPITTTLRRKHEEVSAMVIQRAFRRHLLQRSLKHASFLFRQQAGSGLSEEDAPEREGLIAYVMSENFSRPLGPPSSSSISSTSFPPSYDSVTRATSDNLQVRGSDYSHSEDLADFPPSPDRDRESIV
Experiment: Sodium Influx Assay (Flux), NaV1.5
Details: read-out: Flux NaV1.5 IC50; Trex HEK293 cells, ANG2 dye; arithmetic mean
Where a name gives a salt, the structure may show the parent alone.
To interpret pIC50, take it as minus log10 of a concentration measured in moles per litre.

> print(dat)
                                   molecule              target.under.test  reading
1  O=S(=O)(Nc1cscn1)c1c(F)cc(O[C@H]2CCN(Cc3ccccc3)C2)c(Cl)c1F [Example 268, hydrochloride]  NaV1.5 (Homo sapiens (Human))     4.55
2  Cc1c(OC2CCN(Cc3ccccc3)CC2)cc(F)c(S(=O)(=O)Nc2cscn2)c1F [Example 106, formate]  NaV1.5 (Homo sapiens (Human))     4.69
3  Cc1cccc(CN2CC[C@H](N(C)c3cc(F)c(S(=O)(=O)Nc4cscn4)cc3Cl)C2)c1F  NaV1.5 (Homo sapiens (Human))     5.09
4  CN(c1ccc(S(=O)(=O)Nc2nccs2)cc1Cl)C1(C)CCN(Cc2ccccc2)C1 (centres unmarked)  NaV1.5 (Homo sapiens (Human))     4.82
5  C[C@H](c1cc(C(F)F)ccc1F)N1CCC(Oc2ccc(S(=O)(=O)Nc3cscn3)cc2Cl)CC1 [Example 292, formate]  NaV1.5 (Homo sapiens (Human))     5.73

Let's switch to this molecule now.
Problem: May I ask what pIC50 has been recorded for Cc1cccc(CN2CCC(Oc3ccc(S(=O)(=O)Nc4nccs4)cc3Cl)CC2)c1 ?
Result: 5.44

====

Molecular target: NaV1.1 (Homo sapiens (Human), UniProt P35498)
Experiment: Sodium Influx Assay (Flux), NaV1.1
Assay type: cell-based
Details: Trex HEK293 cells, ANG2 dye; arithmetic mean
pIC50: −log10 of the molar value.
property_name: pIC50

// worked examples, pIC50 included
> print(dat)
                                   compound  property.name  reading
1  Cc1c(N(C)[C@H]2CCN(Cc3cc(F)ccc3F)C2)cc(F)c(S(=O)(=O)Nc2cscn2)c1F [Example 240, 2,2,2-trifluoroacetate]          pIC50     5.09
2  CCc1c(O[C@H]2CCN(Cc3ccccc3)C2)cc(F)c(S(=O)(=O)Nc2cscn2)c1F [Example 276, 2,2,2-trifluoroacetate]          pIC50     4.73
3  CN(c1cc(F)c(S(=O)(=O)Nc2cscn2)cc1Cl)[C@H]1CCN(Cc2cccc(C(F)(F)F)n2)C1          pIC50     4.76
4  Cc1c(N(C)[C@H]2CCN(Cc3cccc(C(F)(F)F)n3)C2)cc(F)c(S(=O)(=O)Nc2cscn2)c1F [Example 224, 2,2,2-trifluoroacetate]          pIC50     5.05
5  O=S(=O)(Nc1nccs1)c1ccc(OC2CCN(Cc3cccc(Cl)c3)CC2)c(Cl)c1          pIC50     5.06

I: COc1ccccc1CN1CC[C@H](N(C)c2cc(F)c(S(=O)(=O)Nc3cscn3)cc2Cl)C1
II: CN(c1cc(F)c(S(=O)(=O)Nc2cscn2)cc1Cl)[C@H]1CCN(Cc2cccc(F)c2)C1
III: CN(c1cc(F)c(S(=O)(=O)Nc2cscn2)cc1Cl)[C@H]1CCN(Cc2ccc(C(F)(F)F)o2)C1 [Example 164, 2,2,2-trifluoroacetate]
Problem: // sort entries: pIC50, high to low // rank by listing labels in the order requested
Result: III, II, I

Origin of measurements: patent US10246453B2
